Recorded inhibition, one value per entry.
Assay: inhibitors of Sendai virus-induced IRF3 signaling, primary screen, TLR/RLR signaling modifier project, cell-based, Sendai virus stimulus, luciferase, 10K MLSCN set (AID 602276);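 note: firefly luciferase from ISG56 promoter only with Renilla not read in this screen; 0% = Sendai virus plus DMSO and 100% = medium plus DMSO without virus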
Details: HEK293 RL24 IRF3 luciferase reporter, at 10 µM, stronger effect = higher value
The answer is to be given in %; state only the numeric part.

Solved entries:
CCOC(=O)CSC1=C(C#N)C(c2ccc3c(c2)OCO3)CC(=O)N1 (centres undefined) = 36.8
Cc1oc2cc(O)ccc2c(=O)c1-c1cnn(-c2ccccc2)c1 = 7.89
CCCn1c(=O)c2[nH]c(C3CCCC3)nc2n(CCC)c1=O = 14.1
C1CNCCNCCNCCN1 = 13.2
Cc1c(/C(O)=C2/C(=O)C(=O)N(CCN3CCOCC3)C2c2cccnc2)cnn1-c1ccccc1 (centres undefined) = -12

Now consider the entry below.
Query: Consider the compound CC1(C2(O)CC(c3ccccc3)ON2)CCCCC1 (centres undefined) and give its recorded inhibition.
Response: 2.61

----------
Molecular target: Voltage-gated potassium channel subunit beta-2 (Rattus norvegicus) (UniProt P62483)
Sequence (P62483 whole entry, looked up): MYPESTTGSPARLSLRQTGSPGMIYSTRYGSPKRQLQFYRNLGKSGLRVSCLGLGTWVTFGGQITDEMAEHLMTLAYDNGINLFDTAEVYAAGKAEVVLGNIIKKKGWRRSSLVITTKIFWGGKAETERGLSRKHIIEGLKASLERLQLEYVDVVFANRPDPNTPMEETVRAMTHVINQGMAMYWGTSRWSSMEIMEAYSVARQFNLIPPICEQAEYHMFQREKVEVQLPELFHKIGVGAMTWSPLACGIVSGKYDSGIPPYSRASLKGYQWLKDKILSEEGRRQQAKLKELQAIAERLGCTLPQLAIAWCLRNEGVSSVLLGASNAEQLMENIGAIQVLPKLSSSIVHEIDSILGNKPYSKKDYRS
Assay: KvBeta positive modulators, primary screen, biochemical, NADPH fluorescence (AID 623);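 note: fluorescence intensity change per second fitted from 20 to 320 s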
Conditions: Recombinant KvBeta, NADPH fluorescence decrease slope, 10 min; at 10 µM; stronger effect = lower value
Recorded NADPH fluorescence slope, one value per entry.
Response field accepts a number only; no unit should be typed.

Solved entries:
C[C@@H]1C[C@H]2[C@@H]3C[C@H](F)C4=CC(=O)C=C[C@]4(C)[C@@]3(F)[C@@H](O)C[C@]2(C)[C@@]1(O)C(=O)CO = -3.8e-05
Cc1cc(=O)n2[nH]cnc2n1 = -0.000147
COC(=O)c1cc(Br)c(=O)n(-c2nccs2)c1 = -5.6e-05

Query: Consider the molecule CCOC(=O)c1ccc2nc(NC(NC(C)=O)(C(=O)OC)C(F)(F)F)sc2c1 (configuration not stated) and give its recorded NADPH fluorescence slope.
Response: -9.4e-05

Query: Consider the molecule `CC(=O)C(=[N+]=[N-])C(=O)NCc1ccccc1` and give its recorded NADPH fluorescence slope.
Response: -4e-05

Query: Consider the molecule `COc1ccc(CNC(=O)[C@H](C)NC(=O)C2CCN(S(=O)(=O)c3ccc(C)cc3)CC2)cc1` and give its recorded NADPH fluorescence slope.
Response: -9.4e-05

----------
Assay: inhibitors of TNFa-induced NFkB p65 translocation, primary screen, imaging, HUVEC, MLSMR starter and 10KST1 sets (AID 438);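 note: compound added about 3h40 before a 20 min TNFalpha stimulation; signal is the nuclear over cytoplasmic p65 intensity ratio per well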
Conditions: HUVEC TNFa-induced p65 nuclear translocation; at 2 µM, stronger effect = higher value, 0% TNFa-plus-vehicle, 100% no-TNFa wells
The source made the active and inactive calls.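 Rule for the calls: active = inhibition above 20% together with a positive visual image hit; inconclusive = visual image hit but inhibition not above 20%; inactive = no visual image hit.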
Recorded inhibition, one value per entry.

Solved entries:
CSC1=C(C#N)C(C)CC(=O)N1 (configuration not stated) = -5.8% (inactive)
COc1ccccc1OCC(O)COC(N)=O (configuration not stated) = 2.6% (inactive)
COc1nc(N(C)S(=O)(=O)c2ccc(C)cc2)nc(C)c1Cl = -20% (inactive)
CC(C)C1=C2OC(N)=C(C#N)C(C#N)=C2C(C)CC1 (configuration not stated) = -6.8% (inactive)
CC(C)Oc1ccc(/C(O)=C2/C(=O)C(=O)N(CCN3CCOCC3)C2c2ccccc2)cc1 (configuration not stated) = 4.6% (inactive)
CN(C)c1nc2n(c(=S)n1)CCS2 = -3.2% (inactive)
COc1ccc2c(c1OC)C(=O)N1c3ccccc3C(=O)N(c3ccc(F)cc3)C21 (configuration not stated) = -15.5% (inactive)
CC1(C)CC(=O)C2=C(C1)OC(N)=C(C#N)[C@@]21C(=O)N(CC(N)=O)c2ccccc21 = -8% (inactive)
CCCc1nc(N2CCOCC2)c(C#N)c2c1CCCC2 = -5.5% (inactive)
CC(NC(=O)NC(N)=O)(C(F)(F)F)C(F)(F)F = 6.8% (inactive)

Query: Consider the compound `CCCCOC(=O)CSc1nc(N)c(C#N)c(-c2ccc(OC)cc2)c1C#N` and give its recorded inhibition.
Response: -0.4% (inactive)

Query: Consider the compound CCCC(=O)N1c2ccccc2NC2=C(C(=O)CCC2)C1c1ccc(F)cc1 (configuration not stated) and give its recorded inhibition.
Response: -9.6% (inactive)

Query: Consider the compound `CNc1nc(C)c(C#N)cc1C(C)=O` and give its recorded inhibition.
Response: -11.7% (inactive)
